# Lookup of reported PET hydrolysis keyed by entry
Procedure details: PET hydrolysis, aromatic products released after 48 h (umol product/mg enzyme); higher = more PET depolymerization activity
Condition details: substrate: aFilm; 40 °C; pH 4.5

Worked examples follow.
Sequence	Recorded measurement
AANPYERGPAPTAASIAATTGPFAVASVSVPRGNGFGGGVIYYPTSTSQGTFGGVAISPGLNGTWAGIAWLGPRLASQGFVIFGIETNNLNDSPASRGTQLLAALDFLTRSSSVRTRVDASRLAVAGHSMGGGGALSAALQRPSLQAAIGNAPHLPSGSLATDRVPTLIYAMQNDTLVTPSRLTSLYNSMPATTERAYIEVAGAGHNYIGQPSTTLARTMIPWLKIFVDNDARYSQFLCPLSNQSGISQYRNSCPLISTTTLSTGVDSTSGLAVR [ESM157]	< 3
GQAPTTAAQVRASAFAKGPDPTEQTIKAQRGPFQIKQLSVAAQSGRGFNRGTIYYPTDTGQGTYGAIAVIPGFLEPEFITSWYGPTLASYGFVVMTLEPFAITDFPDPRSNQLLAAVDWLAADSPVKAQVDPNRLAVMGHSMGGGGALLAASKRPSLKAAVPLAPWNLYADFAGVTVPTLVIGADNDFIAPVGMHADPMYASIKASPNEGYLKLKNADHFTVNSYSATLTKFTVSWMKRYVDEDTRYTQFLCPAPQPDPSFASFQMTCPS [TEP173]	< 3

Return PET hydrolysis for the following sequence: MAAANPYQRGPDPTLASVAATNGPFATAQMTVPPGNGFNGGYIYYPTDTSLGTWGAVAIVPGYTALFKNEEAWMGPRLASFGFVVIGIETNSRTDFDTARGTQLLAALDYLTQKSAVRNRVDPGRLGVIGHSMGGGGALVAATQRPSLKAAVGLAPFKPSGNLANDRVPTMFIAGNRDTVVTPSYLDGLYGSLPAATKKAYVQINGADHLFATKPNTVEMRTLIPWLKIFLDNDTRYSQFLCPTLLDKTGVSMYRGTCPLI [TEP109]
7

* * *

Procedure details: melting temperature (DSF); higher = more thermostable
Measurement label: melting temperature (C)
Please state the figure in C; there is no need to write the unit.

Sequence	Unit	melting temperature
AGNPYQRGPDPTLASVAASRGTFATAQVSVPPGNGFNGGTIYYPTDTTQGTWGAVAIVPGYTALFANEEAWMGPWLASFGFVVIGIETNSRNDFDTARGTQLLAALDYLTQKSPVRDRVDSARLGVIGHSMGGGGVVYATEHRPSLKAAVALAPFSPSQDMSTDHVPTMVMAGQNDTVVTPSYLDGLYATMPASAQSDFVQLAGADHVAYTHPNTTEMRLLIPWLKIFLDDDTRYTQFLCPLKDSTGVSMYRAKCPYVPPGGPTTSPTPTTTPTPPDGGACSATYRTVNSWSGGYQGEITVTAGGAAIDGWTVRWSLGGGQTVTQVWNGTLSTSGSTASVANASYNGSLQASASTTFGFLANGTPSTPALTCSSP [ESM084]	C	43.9

Please supply the value of reported melting temperature for the item ADNPHQRGPNPTQASVAASRGTFATSETSVGGGNGFGGAKIYYPTDTSQGKFAALAVSPGYTATWAAEGAWMGHWLASFGFVIIGIDTISRTDWDVARGDQLLAALDYLTQRSSVRDRVDASRVGVMGHSMGGGGAISAGLKRPSLKVVIGNAPYSASQNLTNMRVPVALLAGQRDTTVTPATTNSYYNQVPATTEKMYLELTNAPHSFPTSNNSVMTRKVIPWMKIFLDQDTRYQQFLCPLLDNTGIRTYRSSCPLIGDPMPPADTYRLAGAASGKCADVEGRSQANGAKLLLWTCNGQTNQRWTQTATGELRVYDNPKCVEAGTSAQGTRVTINACNGGNSQKWTVNANGTVTNAVSGRCLDAAGTADNSPIVVNTCTGAGSQNWSKRS [TEP049]
50.8

* * *

Procedure details: melting temperature (DSF); higher = more thermostable
Measurement label: melting temperature (C)
Write the answer as a number in C, unit excluded.

Sequence	Recorded measurement
AVHGPDPTDALLEASRGPYATAQIDVSALAVSGFGGGTIYYPTTTSEGTFGGVAIAPGYTADKSSLAWLAARLASHGFVVFNIDTLTRLDQPDSRGRQLLAALDYLTQRSSVRSRVDASRLGVMGHSMGGGGTLEAAVSRPSLRAAVPLTPWNLDKTWPEVRTPTLIIGADLDTIAPVLTHAEPFYASLPSTLDKAYLELNNATHFAPNITDTTIGKYAVAWMKRFIDDDTRYNRFLCPGPSWSLSVEEYRSTCPF [TEP061]	51.4

Give me measured melting temperature, please, for this sequence: ALNPYQRGPDPTDALLEAPRGPFATASTTVSRLSVSGFGGGVIYYPTDTSQGTFGGIAISPGYTASWSSLDWLGPRIASHGFVVIGIDTLSRYDQPASRGRQLLAALDYLTQRSSVRGRVDASRLAVAGHSMGGGGSLEAADSRPSLQAAVPLAPWHTTKNWSGVRVPTMIIGGESDSVAPVSTHSELFYASIPASSEKAYLELNGASHFFPNTTNTTMAKSMVSWLKRFVDDDVRYDPFLCPGPDGSAVEEYRQTCPLS [TEP140]
51.4

Using the record for ATNPYQRGPAPTAESISAERGSFAVADSAVSADSVSGFGGGTVYYPTDTSAGKFGAVAIAPGFTANEWSLAWLGPRLASHGFVVFIIDTITTGDQPAQRGDELRAALSYLTTSSPVRDRVDPARLGVMGHSMGGGGALQAAEDDPSIRAVIPMTPYDLDSPSPKVTAPTLIIGAQDDTIAPVAYHARPFYESLTSARAKEYIELRNQSHFAPNYPNATIASASIAWLKRYIDDDQRYQPFACPAQVGSWLISDFRSAC [DP034] , state its measured melting temperature.
47.5

Query melting temperature for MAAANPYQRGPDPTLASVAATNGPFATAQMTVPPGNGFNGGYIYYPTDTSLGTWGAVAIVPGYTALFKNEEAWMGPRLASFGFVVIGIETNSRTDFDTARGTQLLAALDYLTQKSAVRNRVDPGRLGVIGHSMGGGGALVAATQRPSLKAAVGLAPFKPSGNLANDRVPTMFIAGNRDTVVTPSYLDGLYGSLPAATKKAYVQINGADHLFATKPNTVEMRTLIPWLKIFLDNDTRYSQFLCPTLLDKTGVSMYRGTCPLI [TEP109]
61.6

State its melting temperature for this sequence: ADTPYERGPNPSESLIEQRRGNYDIAQRSISRFSSDGFRNGTIYYPTDTSDGKFGVIAISPGYTAGESSIAWLGSRIASFGFVVVTINTTTRYDQPRQRSTQLLAALDHAMNDSVVGPLIDPERQAVMGHSMGGGGALQAAESRPEIDAVVALTPWNLKKNWDGVDAATLIIGAERDTVASVRTHSIPFYESLTQAEQRGYLELRGASHFAPNVSNTTIAKYSIAWMKRYLDNDDRYDQFLNPGPAVGYASGVSDYRLQ [DP003]
42.4

Given the sequence ATTSFQRGPAPTTASIQATSGPFATSQTTVSRISVTGFGGGDIYYPTSTSSGTFGAVAIAPGYTALRSSMAWLAPRIASQGFVVFNIDTLTTSDQPATRGTELLAALDYLTTRSTVRTRIDTTRLAVMGHSMGGGGTLEAAKSRPSLQAAIPLTPWDLNKSFAGLAVPTLIIGAQADTVAPVSQHAKPFFTSLPSGLDKAYLELAGASHFAPNTSNTTIASISIAWLKRFVDDDTRYDQFLCPGPTVGTAVSQFTTNCPHIS [ESM156] , write its reported melting temperature.
40.6

* * *

Here the recorded PET hydrolysis is given for each entry.
Procedure details: PET hydrolysis, aromatic products released after 48 h (umol product/mg enzyme); higher = more PET depolymerization activity
Condition details: substrate: cryPow; 40 °C; pH 8.5
Response field accepts a number only; no unit should be typed.

Worked examples, 5 sequences total:
Sequence	PET hydrolysis
QSSNPYQRGPAPTERSIEASRGPFAVAQTTVSRLSATGFGGGTIYYPTDTSQGRFGGVAISPGFTALQSSIAWLGPRIASQGFIVFTIDTITTLDQPAQRGDQLLAALDYLVQRSPAAVRDRLDPTRLAVMGHSMGGGGTLEAAKKRPSLKAAIPLTGWNLDTIWNDLRVPTLVVGAQLDLIAPILTFSLPFYNTIPASTEKVYLELAGASHFAPNLPDTNIAKYSIAWLKRWVDNDTRYTQFLCPGPRFELAISNYMSSCPM [DP056]	6
ANPYERGPDPTLASVEATSGTFAYASLSVSSGNGFGGGTIYYPTSTTDGTFAGIVTCPGFTNSGSSMAWFGKVLASQGFVTLVMNPKSNLDFPDARATQMLAALDWLTNSSSVKTRIDATRLGVLGQSMGGGATLKASKTRPSLKASFATAPYNSDKDWSTNTVPQFLFGMQNDTTAAVTNHALKFYNSLPATTPKIYAELRGAGHSTATSPNTSIRRYAVSFMKRNLDNDTRYSQFLCPGPTITSSSPLSAFMSNCLF [DP080]	8
ANPYERGPAPTKASIEATTGYFATAKVTVAKSSVSGFGGGTIYYPTSTTSGTFGAIALVPGFTNVQSAVAWLGPRVASQGFVVFIIDTNSVYDSPDSRGTQLLAALDYLTNTSTVKSRVDATRLGVMGYSMGGGGALSATKTRTSIKASVPMAPYHSTKTWTTVKTPTLIVTGQSDTTAPPASHGLAFYNSLSTSIDKAYMELKGAGHSAPTSANTTIAKYSISWFKRFIDDDTRYDQFLCPNPTDTTISSYKSTCNYS [DP082]	93
AIEHRRGPAPSEQSVLAANGPFSHSTFAVSDAASAKFGKGTIYYPNDTSQGTFGGVAISPGYTSTEPHIAWLGTRLAAHGFVTITITTNSLYDNPTERGQQLLAALDYLANNAPLAIRQRLDTSRMGVVGHSMGGGGSLYAVWNRPALKAAVPLAPYHTIKNWSGIKTPTMIIGGSADGVAPVEEHSERFYSSMTYARERAYAELEGANHSGSFLFEDHPIIGKFTVAWLKRFIDGDTRYDQFLCPPPTGAYLTEYRASCPHA [DP006]	5
GETAQTTDVSAQSQFQRGPNPTVSSIEARTGHYRTSTTRVSSFASGFGGGTIYYPTTTSDGTFGGVAVAPGYTASSSTMDWLGPRIASQGFVVFVIDTNTRLDQPSSRGRQLLAALDYLTERSSERHRVDSNRLAVMGHSMGGGGALEATISRPSLKASIPLTPWNLTKNWSRVTTPTLIVGAENDSVASVRSHSIPFYTSLSSSTDRMYVELDGASHFAPNVSNTTIAKYSISWLKRFVDDDTRYDQFLCPLPNERAISDIRGNCPR [DP090]	25.5

Specify PET hydrolysis for ATPARPASVAAAPAAVQRAADNPYQRGPAPTEASITAEKGPFAVETIPVPAGSGTGFNKGTVYAPTDTSEGTFGAIVVSPGFVSPEAWISWYGPRLASQGFVVMTLETNSLVDVPASRGDQLLAALDWLTGKSSVKNRIDASRTAVMGHSMGGGGTLEAANKRPSLKADIPLAPWDTNYNFPNIKTPTLIMGADNDLIAPASSMAESYYNNITTAPEKAYLLLKNAGHMTFVSPNTTIAKYSIAWMKRFVDNDTRYDQFLCPAPKPDANIAKYLDTCPNG [DP016] and stop.
4
